- tested_on: CYP3A4 (Homo sapiens)
- Sequence (P08684 whole entry): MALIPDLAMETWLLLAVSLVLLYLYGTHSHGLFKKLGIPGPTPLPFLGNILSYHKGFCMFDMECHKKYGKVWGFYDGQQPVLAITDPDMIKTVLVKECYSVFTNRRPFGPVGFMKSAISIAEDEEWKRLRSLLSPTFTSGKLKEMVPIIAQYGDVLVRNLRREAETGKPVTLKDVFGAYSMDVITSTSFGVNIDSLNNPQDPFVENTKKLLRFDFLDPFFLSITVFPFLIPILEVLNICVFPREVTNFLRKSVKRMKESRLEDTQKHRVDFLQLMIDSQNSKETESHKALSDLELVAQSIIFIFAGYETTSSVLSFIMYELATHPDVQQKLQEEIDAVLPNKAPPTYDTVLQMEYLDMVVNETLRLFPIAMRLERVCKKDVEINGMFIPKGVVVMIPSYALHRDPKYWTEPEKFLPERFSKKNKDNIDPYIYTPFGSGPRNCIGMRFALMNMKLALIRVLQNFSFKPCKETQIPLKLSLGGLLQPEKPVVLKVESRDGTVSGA
- test_summary: Induction of CYP3A4 relative to control
- Assay type: ADME
- test_parameters: human
quantity_name: Emax (%)

Cc1ccccc1[C@H](CC(=O)O)NC(=O)c1cc(OCC2CC2)n(-c2ccccc2F)n1	72

1 = COc1cc(C(=O)N[C@@H](CC(=O)O)c2ccccc2C)nn1-c1ccccc1F
2 = CCOc1cc(C(=O)N[C@@H](CC(=O)O)c2ccccc2C)nn1-c1ccccc1F
3 = Cc1ccccc1[C@H](CC(=O)O)NC(=O)c1cc(=O)n(-c2ccccc2F)[nH]1
Exercise: Sort these compounds on Emax so the largest reading comes first. Could you list the labels in the order requested?
Solution: 2, 1, 3

// data source = ChEMBL document CHEMBL2169867
